System: SF-268 CNS
Assay: NCI tumour cell line growth inhibition, 48 h
# reported GI50; entries follow

{"columns": ["Compound", "Target desc", "GI50"],
 "data": [
  ["Cc1ccc(S(=O)(=O)N2CCc3ccc(O)c4c3C2Cc2cc(Cl)ccc2-4)cc1 (stereo not given)", "SF-268 CNS", "2.47 µM"],
  ["Cc1[nH]c(=O)[nH]c(=O)c1CO", "SF-268 CNS", "> 100 µM"],
  ["COc1cc2nc(Nc3cccc(F)c3)nc(Nc3cc(C)[nH]n3)c2cc1OC", "SF-268 CNS", "1.82 µM"],
  ["CC(=O)N=c1ccc2nc3c(cc(N)c4ccccc43)oc-2c1", "SF-268 CNS", "1.66 µM"],
  ["O=[N+]([O-])O.[Ga]", "SF-268 CNS", "3000 µM"],
  ["Cc1nc(NC(=O)CCCN2C(=O)c3cccc4cccc(c34)C2=O)sc1C(=O)Nc1cc(C(=O)NCCCN(C)C)n(C)c1", "SF-268 CNS", "> 100 µM"],
  ["COc1ccc(-c2ccc(C3CC(c4ccc(Cl)cc4)=NN3)o2)c([N+](=O)[O-])c1 (stereo not given)", "SF-268 CNS", "> 100 µM"],
  ["COC(=O)CCC/C=C\\C[C@H]1C=CC(=O)/C1=C/C[C@@H](O)C/C=C\\CC(F)(F)F", "SF-268 CNS", "2.84 µM"],
  ["NS(=O)(=O)c1ccc(N2N=C3c4ccccc4CC3C2c2ccc(Cl)cc2)cc1 (stereo not given)", "SF-268 CNS", "22.1 µM"],
  ["C=C(C)[C@@H]1CC[C@]2(C)[C@H](CC[C@@H]3[C@H]4[C@H]5OC[C@@]4(CCC5(C)C)CC[C@]32C)[C@@]1(C)CCCN", "SF-268 CNS", "1.81 µM"]
]}

###

# reported log10(TGI); entries follow
Test system: SN12C renal
Test: NCI tumour cell line growth inhibition, 48 h
Observation type: log10(TGI) (log10 of the value in µM)

{"columns": ["Compound", "log10(TGI)"],
 "data": [
  ["C=C(C)[C@@H]1CC[C@]2(C)[C@H](CC[C@@H]3[C@H]4[C@H]5OC[C@@]4(CCC5(C)C)CC[C@]32C)[C@@]1(C)CCCN", 0.51],
  ["COc1ccc(/C(C)=N/OC(=O)c2c(-c3ccccc3Cl)noc2C)cc1CN1CCOCC1", 1.71],
  ["COc1ccc2nc3ccccc3c(NCCCCCCN(C)CCCl)c2c1", 0.24],
  ["N#CC1=C(N)OC(c2ccc([N+](=O)[O-])cc2)C1(C#N)C#N (stereo unspecified)", 1.51],
  ["CC1C=CC(=O)C(n2cc(F)c(=O)[nH]c2=O)O1 (stereo unspecified)", 1.58],
  ["O=C(c1cccnc1)N1N=C(c2ccc(Cl)cc2)CC1(O)c1cc(F)c(Cl)cc1Cl (stereo unspecified)", 1.57]
]}

###

Tested on: SK-OV-3 ovarian
Assay: NCI tumour cell line growth inhibition, 48 h; in the data active = GI50 below about 0.43 µM; inactive = the rest
Outcomes: active, inactive

{"columns": ["Molecule", "Assigned class"],
 "data": [
  ["Cn1cc(C2=C(c3cn(CCN)c4ccccc34)C(=O)NC2=O)c2ccccc21", "inactive"],
  ["CSc1nc2sc3cc(Cl)ccc3n2c(=N)c1C#N", "inactive"],
  ["CCOC(=O)c1sc(=S)c2c(C(=O)OCC)c(C(=O)OCC)sc2c1C(=O)OCC", "inactive"],
  ["COc1ccc([N+](=O)[O-])c(S(=O)(=O)c2ccc(Cl)cc2)n1", "inactive"],
  ["Nc1ccc(/C=N/Nc2ccnc3c(N)cccc23)c2cccnc12", "inactive"],
  ["COc1ccc(NC(=O)c2sc3nc(C)c(C(O)c4ccccc4)cc3c2N)cc1 (stereo not drawn)", "inactive"],
  ["CCOC(=O)c1sc(Nc2ccc(Cl)cc2)nc1C", "inactive"],
  ["COc1ccc(/C=C/c2n[nH]c3ccc(N4CCOC4=O)cc23)cc1", "inactive"],
  ["COC(=O)C1=C(C(=O)OC)C23C=C(C)C1C2=C(C)C1(CC1)[C@@](C)(O)C3=O (stereo partly drawn)", "active"],
  ["COc1ccc(-c2nc(-c3nc4ccc(OC)cc4[nH]3)cc3c2[nH]c2ccccc23)cc1", "inactive"],
  ["COc1cc(-n2cc(-c3ccc(Cl)cc3)[nH]c2=O)cc(OC)c1OC", "inactive"],
  ["Nc1c(C(=O)Nc2ccccc2Cl)sc2nc3c(cc12)CCCCCC3", "inactive"],
  ["NCCC(O)(P(=O)(O)O)P(=O)(O)O", "inactive"]
]}
